System: PPARg:RXRa DBDmut IVT, anti-RXR (DBD mutation: RXRa K156A/R161A, NR concentration 270 nM, RXRa partner concentration 90 nM)
Test: PBM binding z-score (relative to random genomic background probes); higher = stronger binding; sequences stand for … in GC…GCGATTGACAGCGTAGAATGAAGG
RESULT TYPE: PBM binding z-score
Answers are plain numbers.

Consider the following illustrative entries.
input_sequence=GCTTACGGGTCAAAGGTTATGGCATGAATAGAAT measured_number=5.17
input_sequence=CGAACTAGGTCACCAGGACAGTGAGGAGGTTGGA measured_number=8.37
input_sequence=CTATGTAGGTTAAGGGGGGCATTCAGTTTGAAAG measured_number=7.45

Required: PBM binding z-score, one value per sequence below.
1. CGAACTAGGACAAAGGACAGTGAAAGGCGACGTA
2. CAAACCAGGTCACGAAAGGTCAAAGTCGAATGAC

1. 4.53
2. 6.74

* * *

System: RXRa DBDmut IVT, anti-RXR (DBD mutation: RXRa K156A/R161A, NR concentration 90 nM)
Test: PBM binding z-score (relative to random genomic background probes); higher = stronger binding; sequences stand for … in GC…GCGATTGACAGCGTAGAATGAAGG
Classify by measured PBM binding z-score: Yes if it is equal to or exceeds 1, No if it is smaller.

Here are 6 sequences together with their reported answers.
input_sequence=TCGCGTAGGTTACGGGGGCATTCAGGGATGAAGA target_system="RXRa DBDmut IVT, anti-RXR (DBD mutation: RXRa K156A/R161A, NR concentration 90 nM)" group_label=Yes
input_sequence=CTAACTAGGTCAAGGTCAAAGTCGGTTTGTGCCA target_system="RXRa DBDmut IVT, anti-RXR (DBD mutation: RXRa K156A/R161A, NR concentration 90 nM)" group_label=Yes
input_sequence=CTATATAGGTTAAGGGGGTCATTCAGTTTGAAAG target_system="RXRa DBDmut IVT, anti-RXR (DBD mutation: RXRa K156A/R161A, NR concentration 90 nM)" group_label=Yes
input_sequence=CCTAGTTGGTCAAGGTCCCACACGCTATAGGTAC target_system="RXRa DBDmut IVT, anti-RXR (DBD mutation: RXRa K156A/R161A, NR concentration 90 nM)" group_label=No
input_sequence=CGGAGTAGGTTACGAGGGGGCATTCAGTGCGAAT target_system="RXRa DBDmut IVT, anti-RXR (DBD mutation: RXRa K156A/R161A, NR concentration 90 nM)" group_label=Yes
input_sequence=TGAATGAGGTTTAAGATCAGGGAACGTGGCGTCG target_system="RXRa DBDmut IVT, anti-RXR (DBD mutation: RXRa K156A/R161A, NR concentration 90 nM)" group_label=No

Evaluate `CTATGTAGGTTAAGCGGGTCATTCAGTTTGAAAG` : PBM binding z-score at minimum 1?
Yes

Is PBM binding z-score for `CGTACTAGGTCACCAGGACAGTGAAGAGGTTGGA` at or above 1?
Yes

Check the entry `CGAACTAGGTTACCAGGACAGTGAAGAGGTTGGA` : does PBM binding z-score equal or exceed 1?
No

* * *

Test system: RXRa DBDmut IVT, anti-RXR (DBD mutation: RXRa K156A/R161A, NR concentration 90 nM)
Assay: PBM binding z-score (relative to random genomic background probes); higher = stronger binding; sequences stand for … in GC…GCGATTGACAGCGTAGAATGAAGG
RESULT TYPE: PBM binding z-score

Examples with their reported PBM binding z-score follow.
input_sequence=CGAACTAGGTCAGCAGGACAGTGAAGAGGTTGGA result=0.0956
input_sequence=CAAACTAGGTCACCAGGACAGTGAAGAGGTTGGA result=1.54
input_sequence=CGTCCAAGGTCAAGGTCACTGAAAGAGACTCGAA result=3.73

// each listed sequence needs a value for PBM binding z-score
1. ACTTGGAGGACAAAGGTCAGAGCTACGCCAGTGA
2. CGAACGAGGTCAGAACAGGACAGTGAAGGATGAT
3. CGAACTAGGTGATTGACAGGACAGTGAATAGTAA
4. AGAACGAGGGCAATGAGTTCATAGCACGGGTGGC
5. ATATGTAGGCTAGGGTCATTCAGAAAGTAGGGAA

1. 1.71
2. 3
3. 0.246
4. 3.91
5. 2
